B1: SNAP91 (parent)
chain: FATASAAVPVSTSKPSSDLLDLQP

Variants of: B1
assay_explanation: protein stability index of a GFP-peptide fusion (GPS, HEK-293T) (PSI 1-6); higher = more stable;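 note: lentivirally expressed fusions sorted by FACS into six bins by GFP to DsRed ratio, PSI derived from sequencing read proportions per bin multiplied by bin number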
assay_setup: c terminus: a fixed tail appended
Overview of recorded protein stability index for various variants

Examples from the recorded data:
variant	assay_endpoint	endpoint_result
S5K	protein stability index	4.11
K14T	protein stability index	3.97

Moving on to the next variant.
Ask | What value of measured protein stability index is listed for `A2Q` ?
Reply | 4.11
